molecular target: ARHGEF12, Q9NZN5-2; experiment: holdup assay; parameters: key: below the threshold = too weak to quantify, mostly under pKd 3.1 to 4; settings: plain residues with an end cap or a label only (N-terminal biotin on a linker: ado-ado)
Sequence (Q9NZN5 other isoform, or with tags, fused parts or gaps): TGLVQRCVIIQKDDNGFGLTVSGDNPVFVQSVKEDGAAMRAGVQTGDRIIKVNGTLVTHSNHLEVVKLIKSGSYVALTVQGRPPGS
experimental.endpoint: pKd
Numbers only.

# binder, experimental.endpoint, value
measured = [
    ("SGSLKLMTTV [DACT1, Q9NYF0]", "pKd", 4.62),
    ("PRAEAEDSFL [PDGFRB, P09619]", "pKd", 3.63),
    ("EKKTLIGIKL [GOT1L1, Q8NHS2]", "pKd", 3.64),
    ("FNSYSLTGYV [CLDN2, P57739]", "pKd", 3.84),
]

// below: pKd requested for another binder
Prompt: Given SKENVQETQI [LRRC4B, Q9NT99] , state its recorded pKd.
Completion: 4.4
